Here, each record is paired with measured Trimeric HA Binding RLU data.
Target: recombinant homotrimeric HA, A/Vietnam/1203/04 H5N1 (Influenza A virus A/Vietnam/1203/04 (H5N1))
Assay: trimeric HA microarray, transfection set 5
Settings: remark: other sources report otherwise
Respond numerically; units are RLU and should not be typed.

Examples from the recorded data:
{"binder": "TCN-523 (5248_A17) (antibody, V domains shown) VH: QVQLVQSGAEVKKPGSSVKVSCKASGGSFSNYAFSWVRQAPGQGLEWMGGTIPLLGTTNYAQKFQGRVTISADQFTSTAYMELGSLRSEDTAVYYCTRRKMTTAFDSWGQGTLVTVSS VL: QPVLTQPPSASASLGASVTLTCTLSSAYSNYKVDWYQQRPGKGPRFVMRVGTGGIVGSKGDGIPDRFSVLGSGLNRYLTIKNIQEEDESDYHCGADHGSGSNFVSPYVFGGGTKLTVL", "units": "RLU", "reported_result": 27800}
{"binder": "TCN-552 (5249_I23) (antibody, V domains shown) VH: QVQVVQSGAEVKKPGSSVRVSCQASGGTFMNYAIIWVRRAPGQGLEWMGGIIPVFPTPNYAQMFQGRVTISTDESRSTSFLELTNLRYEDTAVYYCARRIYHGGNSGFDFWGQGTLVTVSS VL: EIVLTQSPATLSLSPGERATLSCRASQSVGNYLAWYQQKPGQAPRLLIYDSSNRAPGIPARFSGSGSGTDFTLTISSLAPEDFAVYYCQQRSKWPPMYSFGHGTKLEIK", "units": "RLU", "reported_result": 18500}

Exercise: Please give the measured Trimeric HA Binding RLU for this binder: TCN-504 (3251_K17) (antibody, V domains shown) VH: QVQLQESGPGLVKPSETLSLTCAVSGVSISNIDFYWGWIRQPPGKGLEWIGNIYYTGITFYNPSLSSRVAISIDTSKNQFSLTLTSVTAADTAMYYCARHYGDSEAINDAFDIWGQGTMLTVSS VL: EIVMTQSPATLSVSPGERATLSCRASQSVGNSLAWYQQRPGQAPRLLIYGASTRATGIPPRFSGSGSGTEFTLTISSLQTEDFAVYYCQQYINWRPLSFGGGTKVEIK
Solution: 21500
